# assayed target: T1, human MSLN-FL-his protein (human, UniProt Q13421 296-580)
# T1 construct: Made in HEK293E cells, purified on nickel column; it is put last here; also called human MSLN full-length protein; hMSLN-FL-his; not shown: His tag
# T1 sequence (Q13421 other isoform, or with tags, fused parts or gaps): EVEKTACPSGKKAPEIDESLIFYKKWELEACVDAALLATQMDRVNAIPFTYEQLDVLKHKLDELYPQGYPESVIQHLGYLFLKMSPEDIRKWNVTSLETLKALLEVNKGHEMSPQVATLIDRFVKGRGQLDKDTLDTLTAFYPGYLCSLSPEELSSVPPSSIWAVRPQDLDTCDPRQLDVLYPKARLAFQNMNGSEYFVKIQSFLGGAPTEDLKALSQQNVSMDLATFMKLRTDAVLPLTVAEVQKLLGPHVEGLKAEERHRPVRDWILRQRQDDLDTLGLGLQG
# procedure summary: ELISA on coated antigen, antibody 0.0001 nM
measured property: OD450 (OD)

[[record]]
binder = "S009-F8-27.1 (antibody, human IgG1, kappa, V domains shown, Human-murine chimeric antibody, human IgG1 heavy and kappa light constant regions) VH: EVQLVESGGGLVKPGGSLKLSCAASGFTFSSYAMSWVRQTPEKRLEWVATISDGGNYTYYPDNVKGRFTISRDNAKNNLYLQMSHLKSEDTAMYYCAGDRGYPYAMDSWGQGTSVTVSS VL: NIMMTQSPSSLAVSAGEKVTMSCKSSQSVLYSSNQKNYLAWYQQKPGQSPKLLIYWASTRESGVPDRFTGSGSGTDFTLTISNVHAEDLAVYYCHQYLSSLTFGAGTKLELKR"
measured_property = "OD450"
value = 0.05

[[record]]
binder = "S009-F8-22.23 (antibody, human IgG1, kappa, V domains shown, Human-murine chimeric antibody, human IgG1 heavy and kappa light constant regions) VH: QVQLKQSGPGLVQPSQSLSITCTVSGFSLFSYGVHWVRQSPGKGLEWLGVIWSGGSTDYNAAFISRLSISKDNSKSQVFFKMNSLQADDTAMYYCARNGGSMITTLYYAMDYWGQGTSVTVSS VL: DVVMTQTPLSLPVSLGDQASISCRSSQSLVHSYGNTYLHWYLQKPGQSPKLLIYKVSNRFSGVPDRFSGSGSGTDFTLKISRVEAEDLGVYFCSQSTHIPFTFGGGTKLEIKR"
measured_property = "OD450"
value = 0.29

[[record]]
binder = "S009-F8-18.9 (antibody, human IgG1, kappa, V domains shown, Human-murine chimeric antibody, human IgG1 heavy and kappa light constant regions) VH: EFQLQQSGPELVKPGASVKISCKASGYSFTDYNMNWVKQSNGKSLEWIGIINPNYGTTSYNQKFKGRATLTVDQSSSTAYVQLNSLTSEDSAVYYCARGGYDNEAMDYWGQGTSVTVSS VL: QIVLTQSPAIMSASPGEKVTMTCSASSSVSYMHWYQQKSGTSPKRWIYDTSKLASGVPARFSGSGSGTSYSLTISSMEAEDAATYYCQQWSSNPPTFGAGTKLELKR"
measured_property = "OD450"
value = 0.06

